Listed here are binders together with their documented pIC50.
# assay.target: T1, Human PDGF-BB (human, UniProt P01127 82-190)
# T1 construct: Dimer of two B chains; also called hPDGF-BB; huPDGF-BB
# T1 sequence (P01127 82-190 limits assumed): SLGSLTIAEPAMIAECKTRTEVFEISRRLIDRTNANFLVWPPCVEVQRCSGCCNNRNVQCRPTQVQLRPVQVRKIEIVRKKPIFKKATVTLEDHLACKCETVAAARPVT
# test.name: competition ELISA: antibody pre-incubated with hPDGF-BB-biotin, binding to coated hPDGF-Rβ-Fc
# pIC50 is unitless: minus log10 of the molar concentration; print number only

CL-33845-IgG (antibody, V domains shown) VH: EVTLRESGPALVKPTQTLTLTCTFSGFSLSTYGMGVGWIRQPPGKALEWLANIWWDDDKYYNPSLKNRLTISKDTSKNQVVLTMTNMDPVDTATYYCARIVSDWTTYSFDYWGQGTMVTVSS VL: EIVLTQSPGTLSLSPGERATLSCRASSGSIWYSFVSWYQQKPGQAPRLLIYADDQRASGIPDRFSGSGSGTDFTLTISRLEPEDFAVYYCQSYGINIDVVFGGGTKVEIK: 9.39

Please find the next binder below.
In: State its pIC50 for this binder: CL-33578-IgG (antibody, V domains shown) VH: EVTLRESGPALVKPTQTLTLTCTFSGFSLSTYGMGVGWIRQPPGKALEWLANIWWDDDKYYNPSLKNRLTISKDTSKNQVVLTMTNMDPVDTATYYCARIQSGWTNYEFDYWGQGTMVTVSS VL: EIVLTQSPGTLSLSPGERATLSCERSSGDIGDSYVSWYQQKPGQAPRLVIYADDQRPSGIPDRFSGSGSGTDFTLTISRLEPEDFAVYYCQSYDINIDIVFGGGTKVEIK
Out: 10.31
